# key: entry, value: GI50
# Tested on: 786-0
# ASSAY METHOD TEXT: NCI tumour cell line growth inhibition, 48 h
The source made the active and inactive calls. Rule as the data show it: active = GI50 up to about 1.1 µM and inactive = higher.

- COMPOUND: "OCCN1CCN(c2nc(N3CCCC3)c3nc(Cl)c(NCc4ccccc4)nc3n2)CC1"
  GI50: "1.95 µM (inactive)"
- COMPOUND: "COCN1C(=O)[C@@H]2CCCN2C(=O)c2ccc(N)cc21"
  GI50: "> 100 µM (inactive)"
- COMPOUND: "O=NN(Cc1ccc(Cl)cc1)C(C(=O)O)c1ccccc1 (stereo unspecified)"
  GI50: "> 100 µM (inactive)"
- COMPOUND: "Cc1ccc(C2CC(c3ccc([N+](=O)[O-])cc3)=Nc3ccccc3S2)cc1 (stereo unspecified)"
  GI50: "14.6 µM (inactive)"
- COMPOUND: "CC1(C)C[C@@H]2C1CCC1(C)CC2(O)CC[C@H]1O (stereo partly specified)"
  GI50: "> 100 µM (inactive)"
- COMPOUND: "COc1ccc(C2C(Cl)C(=O)N2NC(=O)Cc2ccccc2)cc1OC (stereo unspecified)"
  GI50: "> 100 µM (inactive)"
- COMPOUND: "NC(CCCCNc1ccn(C2OC(CO)C(O)C2O)c(=O)n1)C(=O)O (stereo unspecified)"
  GI50: "> 100 µM (inactive)"
- COMPOUND: "Clc1ccc(-n2nnc(C3=NCCN3)c2-c2ccccc2)cc1"
  GI50: "> 100 µM (inactive)"
- COMPOUND: "COC1(OC)C2C=CC1C([C@](C)(N)CO)C2 (stereo partly specified)"
  GI50: "> 100 µM (inactive)"
- COMPOUND: "O=C(O)/C=C/c1ccc(OS(=O)(=O)O)cc1"
  GI50: "> 100 µM (inactive)"
- COMPOUND: "NC1=NN(c2ccccc2)C(=O)C1C(=O)CCC(=O)Nc1cccc(C(F)(F)F)c1 (stereo unspecified)"
  GI50: "> 100 µM (inactive)"
